Where these numbers come from: patent US11987647B2

Tested on: HeLa cells
Assay: Cytosolic entry efficiency of NF-labelled peptides by flow cytometry
Format: cell-based
Conditions: reduced serum concentration (1% FBS), CPP12 most active
[ ]: non-standard residue; d: D form. The star is where a group is joined. Decanoyl = CCCCCCCCCC(=O)*; Orn = NCCC[C@H](N)C(=O)O; Dap = NC[C@H](N)C(=O)O
// reported cytosolic entry efficiency per item

substance	testedSystem	cytosolic entry efficiency (%)
cyclo(Asp^DecyRRRRQ) (cyclo(DRRRRQ); not fully specified (residue 1); printed as cyclo(Asp^DecyRRRRQ)) [CPP1-20]	HeLa cells	94
cyclo(Orn^DecaRRRRQ) (cyclo([Orn](Decanoyl)RRRRQ); SMILES CCCCCCCCCC(=O)NCCC[C@@H]1NC(=O)[C@H](CCC(N)=O)NC(=O)[C@H](CCCNC(=N)N)NC(=O)[C@H](CCCNC(=N)N)NC(=O)[C@H](CCCNC(=N)N)NC(=O)[C@H](CCCNC(=N)N)NC1=O) [CPP1-17]	HeLa cells	58
cyclo(Lys^DecaRRRRQ) (cyclo(K(Decanoyl)RRRRQ); SMILES CCCCCCCCCC(=O)NCCCC[C@@H]1NC(=O)[C@H](CCC(N)=O)NC(=O)[C@H](CCCNC(=N)N)NC(=O)[C@H](CCCNC(=N)N)NC(=O)[C@H](CCCNC(=N)N)NC(=O)[C@H](CCCNC(=N)N)NC1=O) [CPP1-15]	HeLa cells	43
cyclo(Dap^DecaRRRRQ) (cyclo([Dap](Decanoyl)RRRRQ); SMILES CCCCCCCCCC(=O)NC[C@@H]1NC(=O)[C@H](CCC(N)=O)NC(=O)[C@H](CCCNC(=N)N)NC(=O)[C@H](CCCNC(=N)N)NC(=O)[C@H](CCCNC(=N)N)NC(=O)[C@H](CCCNC(=N)N)NC1=O) [CPP1-4]	HeLa cells	44
